B1: biotin-labeled ALG-2 [modified: biotin-labeled; biotin-labeled] [human] / GST-SGG-linker-8xHis fused with the eight-residue Sec31A peptide (NPPPPGFI), wild type [human] (parent complex)
chain 1: MAAYSYRPGPGAGPGPAAGAALPDQSFLWNVFQRVDKDRSGVISDTELQQALSNGTWTPFNPVTVRSIISMFDRENKAGVNFSEFTGVWKYITDWQNVFRTYDRDNSGMIDKNELKQALSGFGYRLSDQFHDILIRKFDRQGRGQIAFDDFIQGCIVLQRLTDIFRRYDTDQDGWIQVSYEQYLSMVFSIV
chain 2: NPPPPGFI

variants of: B1; assay: far-Western blot (FW), signal intensity measured with ImageJ; n = 4; read off a plot
endpoint-label: percent of parent

[[record]]
variant = "chain 2 I8G"
value_observed = "~9 % of WT"

[[record]]
variant = "chain 2 N1P"
value_observed = "~100 % of WT"

[[record]]
variant = "chain 2 P4A"
value_observed = "~42 % of WT"


Query: Bench note: what percent of parent did chain 2 P5L show?
Reply: ~55 % of WT
